Target: KIF18a-Microtubule Complex (Homo sapiens (Human))
Assay: Binding kinetics to KIF18a-microtubule complex (global progress curve analysis)
Conditions: read-out: KI (determined from binding kinetic assay koff/kon); koff/kon
pKi: −log10 of the molar value.
# maps each entry to its pKi
measuredEndpoint: pKi

CS(=O)(=O)Nc1ccc2c(c1)C1(CCC3(CC3)CC1)CN2C(=O)c1cccc(S(=O)(=O)C2CCCC2)c1
8.70
CS(=O)(=O)Nc1ccc2c(c1)C1(CCC3(CC3)CC1)CN2C(=O)c1cccc([C@H](O)CC2CCC2)c1 (single isomer, unassigned) [Compound 305b]
8.43
CS(=O)(=O)Nc1ccc2c(c1)C1(CCC3(CC3)CC1)CN2C(=O)c1cccc([C@H](O)C2CCCC2)n1 (single isomer, unassigned) [Compound 317b]
8.23
CC(C)(C)NS(=O)(=O)c1cccc(C(=O)N2CC3(CCC4(CC4)CC3)c3cc(NS(=O)(=O)CCO)ccc32)c1
9.54

====

Target: KIF18a-Microtubule Complex (Homo sapiens (Human), UniProt Q8NI77)
Assay: Binding kinetics to KIF18a-microtubule complex (global progress curve analysis)
Conditions: read-out: KI (determined from binding kinetic assay koff/kon); koff/kon
# maps each entry to its Ki
measuredEndpoint: Ki (nM)

CC(C)(C)NS(=O)(=O)c1cc(C(=O)N2CC3(CCC4(CC4)CC3)c3cc(NS(C)(=O)=O)ccc32)ccc1O
0.38
CC(C)(C)NS(=O)(=O)c1cc(C(=O)N2CC3(CCC4(CC4)CC3)c3cc(NS(C)(=O)=O)ccc32)cs1
0.31
CS(=O)(=O)Nc1ccc2c(c1)C1(CCC3(CC3)CC1)CN2C(=O)c1cccc(S(=O)(=O)N2CC3C(C2)C3(F)F)c1 (stereo not shown)
0.44
CCS(=O)(=O)Nc1ccc2c(c1)C1(CCC3(CC3)CC1)CN2C(=O)c1cccc(S(=O)(=O)N2CC3(CCO3)C2)c1
0.57

====

# maps each entry to its pIC50
Biological target: hKIF18A (1-374) (Homo sapiens (Human))
Sequence (Q8NI77 whole entry, looked up): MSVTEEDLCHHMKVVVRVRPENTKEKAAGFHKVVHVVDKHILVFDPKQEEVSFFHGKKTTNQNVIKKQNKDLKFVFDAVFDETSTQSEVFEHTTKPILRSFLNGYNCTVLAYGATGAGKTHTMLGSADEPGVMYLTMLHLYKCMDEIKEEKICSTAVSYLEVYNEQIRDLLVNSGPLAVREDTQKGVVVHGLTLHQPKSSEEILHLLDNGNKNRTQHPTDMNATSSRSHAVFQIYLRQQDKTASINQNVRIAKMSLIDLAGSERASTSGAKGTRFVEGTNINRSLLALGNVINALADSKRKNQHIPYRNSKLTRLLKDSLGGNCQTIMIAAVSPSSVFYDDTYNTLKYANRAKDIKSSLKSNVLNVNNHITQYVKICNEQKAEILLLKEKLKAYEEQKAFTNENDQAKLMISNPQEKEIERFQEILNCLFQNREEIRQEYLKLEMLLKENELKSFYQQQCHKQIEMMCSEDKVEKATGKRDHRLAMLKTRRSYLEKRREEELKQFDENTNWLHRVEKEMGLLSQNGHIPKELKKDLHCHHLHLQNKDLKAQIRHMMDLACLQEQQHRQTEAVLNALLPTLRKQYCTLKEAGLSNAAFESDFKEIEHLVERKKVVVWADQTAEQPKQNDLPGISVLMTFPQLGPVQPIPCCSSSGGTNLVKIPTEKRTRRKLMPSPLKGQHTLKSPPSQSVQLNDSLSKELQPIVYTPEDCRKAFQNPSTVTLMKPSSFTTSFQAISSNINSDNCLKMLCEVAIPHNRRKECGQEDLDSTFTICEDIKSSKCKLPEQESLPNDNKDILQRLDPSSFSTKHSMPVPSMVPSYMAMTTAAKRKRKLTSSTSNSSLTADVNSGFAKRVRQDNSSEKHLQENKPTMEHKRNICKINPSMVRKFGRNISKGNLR
Sequence (Q2XVP4 whole entry partner, looked up): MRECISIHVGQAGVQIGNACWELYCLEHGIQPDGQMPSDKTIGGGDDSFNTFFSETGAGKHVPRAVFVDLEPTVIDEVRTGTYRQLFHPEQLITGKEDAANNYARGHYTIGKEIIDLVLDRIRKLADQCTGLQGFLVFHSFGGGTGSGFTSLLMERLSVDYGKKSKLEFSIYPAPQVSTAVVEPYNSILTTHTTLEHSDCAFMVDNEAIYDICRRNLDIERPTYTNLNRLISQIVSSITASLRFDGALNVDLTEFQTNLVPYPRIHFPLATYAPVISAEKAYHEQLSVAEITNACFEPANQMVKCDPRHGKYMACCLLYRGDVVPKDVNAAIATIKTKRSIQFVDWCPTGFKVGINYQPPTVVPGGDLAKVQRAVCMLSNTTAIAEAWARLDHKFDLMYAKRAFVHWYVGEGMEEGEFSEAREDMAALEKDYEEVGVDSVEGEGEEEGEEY
Sequence (P02554 whole entry partner, looked up): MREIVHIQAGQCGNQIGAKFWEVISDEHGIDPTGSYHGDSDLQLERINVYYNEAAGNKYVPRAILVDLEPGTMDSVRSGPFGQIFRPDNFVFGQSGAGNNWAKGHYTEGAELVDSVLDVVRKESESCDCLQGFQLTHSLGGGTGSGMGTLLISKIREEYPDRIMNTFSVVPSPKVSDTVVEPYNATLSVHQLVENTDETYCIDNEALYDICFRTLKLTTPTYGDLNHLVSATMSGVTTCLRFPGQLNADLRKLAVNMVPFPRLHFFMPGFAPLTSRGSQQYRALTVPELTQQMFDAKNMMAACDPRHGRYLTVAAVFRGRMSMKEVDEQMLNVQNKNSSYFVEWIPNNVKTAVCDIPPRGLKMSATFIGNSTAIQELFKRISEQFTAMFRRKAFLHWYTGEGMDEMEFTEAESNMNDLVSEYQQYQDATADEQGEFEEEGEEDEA
Assay: Inhibition of KIF18A microtubule-dependent ATPase activity (ADP-Glo)
Details: KIF18A microtubule-dependent ATPase activity, biochemical assay
pIC50: −log10 of the molar value.
measuredEndpoint: pIC50

CS(=O)(=O)Nc1ccc2c(c1)C1(CCC3(CC3)CC1)CN2C(=O)c1cccc(S(=O)(=O)NC2CC23CC3)c1 (stereo not shown)
8.12
CS(=O)(=O)Nc1ccc2c(c1)C1(CCC3(CC3)CC1)CN2C(=O)c1cccc(CN2CC(F)(F)C2)c1
7.24
CS(=O)(=O)Nc1ccc2c(c1)C1(CCC3(CC3)CC1)CN2C(=O)c1cccc(S(=O)(=O)N2CC[C@@H](F)C2)c1 [(R)-Compound 239]
8.03
O=C(c1ccc(C(O)C2CCCC2)o1)N1CC2(CCC3(CC3)CC2)c2cc(NS(=O)(=O)CCO)ccc21 (single isomer, unassigned) [Compound 368a]
8.52
CC(=O)NCCCS(=O)(=O)Nc1ccc2c(c1)C1(CCC3(CC3)CC1)CN2C(=O)c1cccc(S(=O)(=O)NC(C)(C)C)c1
7.66
COc1ccc(C(=O)N2CC3(CCC4(CC4)CC3)c3cc(NS(C)(=O)=O)ccc32)cc1S(=O)(=O)N1CC(F)(F)C1
7.72
Cn1cc(S(=O)(=O)NC(C)(C)C)cc1C(=O)N1CC2(CCCCC2)c2cc(NS(C)(=O)=O)ccc21
6.54
CS(=O)(=O)Nc1ccc2c(c1)C1(CCCCC1)CN2C(=O)c1cccc(S(=O)(=O)C2CCCC2)c1
7.14
CS(=O)(=O)Nc1ccc2c(c1)C1(CCC3(CC3)CC1)CN2C(=O)c1cccc(S(=O)(=O)N2CC3(CCC3)C2)c1
8.17
CCS(=O)(=O)Nc1ccc2c(c1)C1(CCC(F)(F)CC1)CN2C(=O)c1cc(S(=O)(=O)N2CC3(CCC3)C2)cs1
7.42
CS(=O)(=O)Nc1ccc2c(c1)C1(CCC3(CC3)CC1)CN2C(=O)c1cccc([C@@H](O)C2CC(F)(F)C2)c1 [Compound 351b]
7.92
CC(C)(C)NS(=O)(=O)c1cc(C(=O)N2CC3(CCC(F)(F)CC3)c3cc(NS(C)(=O)=O)ccc32)cs1
7.39
CC(C)(C)NS(=O)(=O)c1cc(C(=O)N2CC3(CCC4(CC4)CC3)c3cc(NS(C)(=O)=O)ccc32)ccc1F
7.72

====

# maps each entry to its pIC50
Molecular target: hKIF18A (1-374) (Homo sapiens (Human))
Experiment: Inhibition of KIF18A microtubule-dependent ATPase activity (ADP-Glo)
Settings: KIF18A microtubule-dependent ATPase activity, biochemical assay
pIC50: −log10 of the molar value.
measuredEndpoint: pIC50

CS(=O)(=O)Nc1ccc2c(c1)C1(CCC3(CC3)CC1)CN2C(=O)c1cccc(NC2CCCC2)c1
6.55
CC(C)(C)[C@@H](O)c1ccc(C(=O)N2CC3(CCC4(CC4)CC3)c3cc(NS(=O)(=O)CCO)ccc32)o1 (single isomer, unassigned) [Compound 371a]
7.52
CS(=O)(=O)Nc1ccc2c(c1)C1(CCC3(CC3)CC1)CN2C(=O)c1cccc(C(O)C2CCC2)c1 (stereo not shown)
7.70
CS(=O)(=O)Nc1ccc2c(c1)C1(CCC3(CC3)CC1)CN2C(=O)c1ccnc(C(O)C2CCCC2)c1 (stereo not shown)
7.74
CS(=O)(=O)Nc1ccc2c(c1)C1(CCC3(CC3)CC1)CN2C(=O)c1ccnc([C@@H](O)C2CCCC2)c1 (single isomer, unassigned) [Compound 316a]
7.68
CS(=O)(=O)Nc1ccc2c(c1)C1(CCC3(CC3)CC1)CN2C(=O)c1cccc(C(O)C2CCCC2)c1 (single isomer, unassigned) [Compound 165b]
8.00
CC(C)(C)NS(=O)(=O)c1cc(C(=O)N2CC3(CCC4(CC4)CC3)c3cc(NS(C)(=O)=O)ccc32)ccc1O
8.08
CC1(NS(=O)(=O)c2cccc(C(=O)N3CC4(CCC5(CC5)CC4)c4cc(NS(C)(=O)=O)ccc43)c2)CCOC1 (stereo not shown)
7.77
COCC(C)NS(=O)(=O)c1cccc(C(=O)N2CC3(CCC4(CC4)CC3)c3cc(NS(C)(=O)=O)ccc32)c1 (stereo not shown)
7.14
CC(C)(C)NS(=O)(=O)c1cccc(C(=O)N2CC3(CCC4(CC4)CC3)c3cc(Br)ccc32)c1
6.00
C=C1CC(NS(=O)(=O)c2cccc(C(=O)N3CC4(CCC5(CC5)CC4)c4cc(NS(C)(=O)=O)ccc43)c2)C1
8.32
CCS(=O)(=O)Nc1ccc2c(c1)C1(CCC3(CC3)CC1)CN2C(=O)c1ccc(F)c(S(=O)(=O)NC(C)(C)C)c1
7.74
CS(=O)(=O)Nc1ccc2c(c1)C1(CCC3(CC3)CC1)CN2C(=O)c1cccc([C@H](O)C2CCC2)c1 (single isomer, unassigned) [Compound 313b]
7.82

====

# maps each entry to its IC50
System: HCC15 cells
Experiment: Cell viability of KIF18a-sensitive cell lines, HCC15 (Cell Titre-Glo, 7 days)
Type: cell-based
Conditions: HCC15, 168 h, read-out: HCC-15 IC50
measuredEndpoint: IC50 (nM)

CS(=O)(=O)Nc1ccc2c(c1)C1(CCCC1)CN2C(=O)c1cccc(S(=O)(=O)N2CCC(F)(F)CC2)c1
160
O=C(c1cccc(S(=O)(=O)N2CCC(F)(F)CC2)c1)N1CC2(CCCC2)c2cc(NS(=O)(=O)CCO)ccc21
140

====

Target: hKIF18A (1-374) (Homo sapiens (Human))
Assay: Inhibition of KIF18A microtubule-dependent ATPase activity (ADP-Glo)
Conditions: KIF18A microtubule-dependent ATPase activity, biochemical assay
measuredEndpoint: IC50 (µM)

O=C(c1cccc(S(=O)(=O)N2CCCCC2)c1)N1CC2(CCCC2)c2c(F)cccc21 [Compound 1′]
2.6
Cc1oc(C(=O)N2CC3(CCCCC3)c3cc(NS(C)(=O)=O)ccc32)cc1S(=O)(=O)NC(C)(C)C [Compound 57]
1.1
CS(=O)(=O)Nc1ccc2c(c1)C1(CCC3(CC3)CC1)CN2C(=O)c1cccc(S(=O)(=O)NC2CC(F)(F)C2)c1 [Compound 192]
0.01
CC(C)(CO)NS(=O)(=O)c1cccc(C(=O)N2CC3(CCC4(CC4)CC3)c3cc(NS(C)(=O)=O)ccc32)c1 [Compound 220]
0.025

====

Biological target: hKIF18A (1-374) (Homo sapiens (Human))
Assay: Inhibition of KIF18A microtubule-dependent ATPase activity (ADP-Glo)
Conditions: KIF18A microtubule-dependent ATPase activity, biochemical assay
pIC50: −log10 of the molar value.
measuredEndpoint: pIC50

CC(C)(C)NS(=O)(=O)c1cccc(C(=O)N2CC3(CCCCC3)c3cc(NS(C)(=O)=O)ccc32)c1
7.17
CS(=O)(=O)Nc1ccc2c(c1)C1(CCCCC1)CN2C(=O)c1cccc(S(=O)(=O)N2CCCCC2)c1
7.40
CN(c1cccc(C(=O)N2CC3(CCC4(CC4)CC3)c3cc(NS(C)(=O)=O)ccc32)c1)C1CCCC1
6.72
CC1(C)CCN1S(=O)(=O)c1cccc(C(=O)N2CC3(CCC4(CC4)CC3)c3cc(NS(C)(=O)=O)ccc32)c1
7.47
CS(=O)(=O)Nc1ccc2c(c1)C1(CCC3(CC3)CC1)CN2C(=O)c1cccc(S(=O)(=O)N2CCCCC2)c1
7.89
CCN(c1ccc2c(c1)C1(CCC3(CC3)CC1)CN2C(=O)c1cccc(S(=O)(=O)N2CCC(F)(F)CC2)c1)S(C)(=O)=O
7.11
C=CCC1CC1NS(=O)(=O)c1cccc(C(=O)N2CC3(CCC4(CC4)CC3)c3cc(NS(C)(=O)=O)ccc32)c1 (centres unmarked)
7.66
CS(=O)(=O)Nc1ccc2c(c1)C1(CCC3(CC3)CC1)CN2C(=O)c1cccc([C@H](O)CC2CCC2)c1 (single isomer, unassigned) [Compound 305b]
8.17
CC1(F)CCC2(CC1)CN(C(=O)c1cccc(S(=O)(=O)NC(C)(C)C)c1)c1ccc(NS(C)(=O)=O)cc12 (centres unmarked)
7.14
CC(C)(C)NS(=O)(=O)c1cccc(C(=O)N2CC3(CCC4(CC4)CC3)c3cc(NS(=O)(=O)C4CC4)ccc32)c1
7.70
CC(C)(C)NS(=O)(=O)c1cc(C(=O)N2CC3(CCCCC3)c3cc(NS(=O)(=O)CCO)ccc32)cs1
7.77
CC(O)c1ccc2c(c1)C1(CCC3(CC3)CC1)CN2C(=O)c1cccc(S(=O)(=O)NC(C)(C)C)c1 (centres unmarked)
6.82
CS(=O)(=O)Nc1ccc2c(c1)C1(CCC3(CC3)CC1)CN2C(=O)c1cccc(S(=O)(=O)NC2COC2)c1
7.25
CS(=O)(=O)Nc1ccc2c(c1)C1(CCCCC1)CN2C(=O)c1cccc([S+]([O-])C2CCCC2)c1 (centres unmarked)
7.05
CS(=O)(=O)Nc1ccc2c(c1)C1(CCC3(CC3)CC1)CN2C(=O)c1cccc([C@H](O)C2CCCC2)n1 (single isomer, unassigned) [Compound 317b]
8.00
CC(NS(=O)(=O)c1cccc(C(=O)N2CC3(CCC4(CC4)CC3)c3cc(NS(C)(=O)=O)ccc32)c1)C1CC1 (centres unmarked)
7.92
CS(=O)(=O)Nc1ccc2c(c1)C1(CCC3(CC3)CC1)CN2C(=O)c1cccc(S(=O)(=O)NC23CC(C2)C3)c1
8.17
Cc1cc(C(=O)N2CC3(CCC4(CC4)CC3)c3cc(NS(C)(=O)=O)ccc32)nc(CN2CCC(F)(F)CC2)n1
6.09
CCS(=O)(=O)Nc1ccc2c(c1)C1(CCC3(CC3)CC1)CN2C(=O)c1cccc(S(=O)(=O)N2CC3(CCO3)C2)c1
7.74
CCOC(=O)Nc1ccc2c(c1)C1(CCCCC1)CN2C(=O)c1cccc(S(=O)(=O)N2CCCCC2)c1
5.96
CC(C)(C)NS(=O)(=O)c1cccc(C(=O)N2CC3(CCC4(CC4)CC3)c3cc(C(O)C(F)(F)F)ccc32)c1 (single isomer, unassigned) [Compound 338b]
7.08
CS(=O)(=O)Nc1ccc2c(c1)C1(CCC3(CC3)CC1)CN2C(=O)c1cccc(C(O)CN2CC(F)(F)C2)c1 (centres unmarked)
7.55
CS(=O)(=O)Nc1ccc2c(c1)C1(CCC3(CC3)CC1)CN2C(=O)c1cccc(C(O)CC2CCC2)c1 (centres unmarked)
8.05
CC1CCC2(CC1)CN(C(=O)c1cccc(S(=O)(=O)NC(C)(C)C)c1)c1ccc(NS(C)(=O)=O)cc12 (centres unmarked)
7.89
CS(=O)(=O)Nc1ccc2c(c1)C1(CCC3(CC3)CC1)CN2C(=O)c1cccc(S(=O)(=O)NC2(CO)CC2)c1
7.28
CS(=O)(=O)Nc1ccc2c(c1)C1(CCC3(CC3)CC1)CN2C(=O)c1cccc(S(=N)(=O)C2CCCC2)c1 (single isomer, unassigned) [Compound 287a]
7.47
